target: recombinant CETP (rCETP) (Homo sapiens, UniProt P11597); test: RTA assay using recombinant CETP (2% RTA); assay type: biochemical; conditions: value printed with the example; serum level not stated there; read-out: RTA
ASSAY_METRIC: IC50 (nM)
Please give a number only; it is taken to be in nM.

So what IC50 did COc1ccc(-c2ccc(C(=O)O)cc2C)cc1-c1cnc(N2CCC2)nc1CN1C(=O)O[C@H](c2cc(Cl)cc(Cl)c2)[C@@H]1C get with recombinant CETP (rCETP) (Homo sapiens, UniProt P11597)?
4.43

So what IC50 did COc1cc(F)c(C(C)C)cc1-c1cnc(N2CC(F)C2)nc1CN1C(=O)O[C@H](c2cc(C3CC3)cc(C(F)(F)F)c2)[C@@H]1C get with recombinant CETP (rCETP) (Homo sapiens, UniProt P11597)?
98

---

Molecular target: recombinant CETP (rCETP) (Homo sapiens)
Sequence (P11597 18-493): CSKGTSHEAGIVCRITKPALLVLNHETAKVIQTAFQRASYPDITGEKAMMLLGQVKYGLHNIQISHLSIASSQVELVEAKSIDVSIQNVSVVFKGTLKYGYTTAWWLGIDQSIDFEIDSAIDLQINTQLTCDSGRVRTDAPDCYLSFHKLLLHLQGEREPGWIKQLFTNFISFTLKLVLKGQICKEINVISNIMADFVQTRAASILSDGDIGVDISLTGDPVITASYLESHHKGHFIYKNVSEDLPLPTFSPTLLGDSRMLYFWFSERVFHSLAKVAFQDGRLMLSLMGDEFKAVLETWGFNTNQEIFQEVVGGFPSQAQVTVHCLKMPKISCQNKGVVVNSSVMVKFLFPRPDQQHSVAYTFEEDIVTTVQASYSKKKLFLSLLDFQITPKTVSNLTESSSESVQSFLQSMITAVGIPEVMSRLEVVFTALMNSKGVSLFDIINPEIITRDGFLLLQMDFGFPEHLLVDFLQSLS
Assay: RTA assay using recombinant CETP (2% RTA)
Type: biochemical
Details: RTA assay in 2% human serum; read-out: IC50
pIC50: −log10 of the molar value.
Label 1 when pIC50 is at or above 7; anything below gets 0.

Given COc1ccc(-c2ccc(C(=O)O)cc2C)cc1-c1ccc(N2CCC2)nc1CN1C(=O)O[C@H](c2cccc(C)c2)[C@@H]1C [Example 237] , state whether its pIC50 is at least 7.
1

Given COc1ccc(C2C[C@@H]2C(=O)O)cc1-c1cnc(N2CC(F)(F)C2)nc1CN1C(=O)O[C@H](c2cc(C(F)(F)F)cc(C(F)(F)F)c2)[C@@H]1C (stereo partly shown) [Example 163] , state whether its pIC50 is at least 7.
1

Given CCc1ccc(-c2ccc(C(=O)OC)cc2C)cc1-c1cnc(N2CC(OC)C2)nc1CN1C(=O)O[C@H](c2cc(C(F)(F)F)cc(C(F)(F)F)c2)[C@@H]1C [Example 137] , state whether its pIC50 is at least 7.
0

Given COC(=O)[C@H]1CC[C@@H](c2ccc(OC)c(-c3ccc(N4CCC4)nc3CN3C(=O)O[C@H](c4cc(C(F)(F)F)cc(C(F)(F)F)c4)[C@@H]3C)c2)C1 (single isomer, unassigned) [Example 217] , state whether its pIC50 is at least 7.
1

Given COc1ccc(CC#N)cc1-c1ccc(N2CCC2)nc1CN1C(=O)O[C@H](c2cc(C(F)(F)F)cc(C(F)(F)F)c2)[C@@H]1C [Example 256] , state whether its pIC50 is at least 7.
1

Given COc1cc2c(cc1-c1cnc(N3CCC3)nc1CN1C(=O)O[C@H](c3cc(C(F)(F)F)cc(C(F)(F)F)c3)[C@@H]1C)[C@H](CC(=O)O)CC2 [Example 155] , state whether its pIC50 is at least 7.
1

Given COc1ccc(CC(C)(C)C(=O)O)cc1-c1cnc(N2CCC2)nc1CN1C(=O)O[C@H](c2cc(C(F)(F)F)cc(C(F)(F)F)c2)[C@@H]1C [Example 156] , state whether its pIC50 is at least 7.
1

Given COC(=O)Cc1ccc(OC)c(-c2c(C)cc(N3CCC3)nc2CN2C(=O)O[C@H](c3cc(C(F)(F)F)cc(C(F)(F)F)c3)[C@@H]2C)c1 [Example 40] , state whether its pIC50 is at least 7.
1

Given COc1ccc([C@H]2CC[C@H](C(=O)O)CC2)cc1-c1ccc(N2CCC2)nc1CN1C(=O)O[C@H](c2cccc(C(F)(F)F)c2)[C@@H]1C [Example 219] , state whether its pIC50 is at least 7.
1

Given COc1ccc(-c2ccc(C(=O)O)o2)cc1-c1ccc(N2CCC2)nc1CN1C(=O)O[C@H](c2cc(C(F)(F)F)cc(C(F)(F)F)c2)[C@@H]1C [Example 112] , state whether its pIC50 is at least 7.
0

Given COc1cc(F)c(CCC(=O)O)cc1-c1ccc(N2CCC2)nc1CN1C(=O)O[C@H](c2cc(C(F)(F)F)cc(C(F)(F)F)c2)[C@@H]1C [Example 79] , state whether its pIC50 is at least 7.
1

Given COc1ccc(C2CCC(O)C2)cc1-c1ccc(N2CCC2)nc1CN1C(=O)O[C@H](c2cc(C(F)(F)F)cc(C(F)(F)F)c2)[C@@H]1C (mixture of isomers) [Example 263] , state whether its pIC50 is at least 7.
1

Given COc1ccc([C@H]2CC[C@H](C(=O)O)CC2)cc1-c1ccc(N2CCC2)nc1CN1C(=O)O[C@H](c2cc(F)c(F)c(F)c2)[C@@H]1C [Example 101] , state whether its pIC50 is at least 7.
1

Given COc1ccc(-c2csc(C(=O)O)c2C)cc1-c1ccc(N2CCC2)nc1CN1C(=O)O[C@H](c2cc(C(F)(F)F)cc(C(F)(F)F)c2)[C@@H]1C [Example 108] , state whether its pIC50 is at least 7.
1

Given CCOC(=O)c1c(C)c(-c2ccc(OC)c(-c3ccc(N4CCC4)nc3CN3C(=O)O[C@H](c4cc(C(F)(F)F)cc(C(F)(F)F)c4)[C@@H]3C)c2)c(C)n1C [Example 57] , state whether its pIC50 is at least 7.
1

Given COc1ccc(C(C)(C)CC(=O)O)cc1-c1ccc(N2CCC2)nc1CN1C(=O)O[C@H](c2cccc(C(F)(F)F)c2)[C@@H]1C [Example 220] , state whether its pIC50 is at least 7.
0

Given COc1ccc([C@H]2C[C@@H](C(=O)O)C2)cc1-c1ccc(N2CCC2)nc1CN1C(=O)O[C@H](c2cc(C(F)(F)F)cc(C(F)(F)F)c2)[C@@H]1C [Example 89] , state whether its pIC50 is at least 7.
1

The measured values listed here are drawn from patent US9221834B2.
